Record form. Attribute: pIC50. Fill in for each entry.
# Tested on: HCT-116
# TEST METHOD NOTES: Antiproliferative activity against human HCT116 cells after 48 hrs by MTT assay
# Format: functional, cell-based
# CONDITION: HCT-116, 48 h
Scale explanation: pIC50 corresponds to minus log10 of a concentration expressed in moles per litre.

The recorded pIC50 for entry `O=C(CCl)Nc1ccc(SCC(=O)Nc2ccc(Br)cn2)cc1` equals 5.92

The recorded pIC50 for entry `O=C(CCl)Nc1ccc(SCC(=O)Nc2ccc(Cl)cn2)cc1` equals 6.21

* * *

# TEST METHOD NOTES: Antiproliferative activity against human A875 cells after 48 hrs by MTT assay
# Format: functional, cell-based
# CONDITION: A875, 48 h
ENDPOINT LABEL: IC50 (µM)
Give just the numeric value; µM need not be written.

The recorded IC50 for entry `O=C(CSc1nnc(NC(=O)CCCl)s1)Nc1ccc(Br)cn1` equals 0.43

The recorded IC50 for entry `O=C(CCl)Nc1ccc(SCC(=O)Nc2ccccn2)cc1` equals 17.2

The recorded IC50 for entry `O=C(CCl)Nc1ccc(SCC(=O)Nc2ccc(Cl)cn2)cc1` equals 0.098

The recorded IC50 for entry `O=C(CCCl)Nc1ccc(SCC(=O)Nc2cc(Cl)ccn2)cc1` equals 12.3

* * *

# TEST METHOD NOTES: Antiproliferative activity against human A875 cells after 48 hrs by MTT assay
# Format: functional, cell-based
# CONDITION: A875, 48 h
ENDPOINT LABEL: pIC50
Scale explanation: pIC50 corresponds to minus log10 of a concentration expressed in moles per litre.

The recorded pIC50 for entry `O=C(CSc1nnc(NC(=O)CCl)s1)Nc1ccc(Br)cn1` equals 4.86

The recorded pIC50 for entry `Cc1ccnc(Cl)c1NC(=O)CSc1nnc(NC(=O)CCl)s1` equals 4.46

The recorded pIC50 for entry `Cc1ccc(NC(=O)CSc2nnc(NC(=O)CCl)s2)nc1` equals 4.74

The recorded pIC50 for entry `O=C(CCl)Nc1ccc(SCC(=O)Nc2ccc(Br)cn2)cc1` equals 6.54

The recorded pIC50 for entry `O=C(CSc1ccc(NC(=O)CCl)cc1)NCc1cccc(Cl)c1` equals 5.11

The recorded pIC50 for entry `O=C(CCCl)Nc1ccc(SCC(=O)Nc2ccc(Br)cn2)cc1` equals 4.61

The recorded pIC50 for entry `O=C(CCCl)Nc1ccc(SCC(=O)Nc2ccccn2)cc1` equals 4.53

The recorded pIC50 for entry `O=C(CSc1ccc(NC(=O)C(Cl)Cl)cc1)Nc1ccc(Br)cn1` equals 4.25

The recorded pIC50 for entry `O=C(CSc1ccc(NC(=O)CCl)cc1)NCc1ccc(Cl)cc1` equals 5.05

The recorded pIC50 for entry `C=CC(=O)Nc1ccc(SCC(=O)NCc2cccc(Cl)c2)cc1` equals 4.68

The recorded pIC50 for entry `O=C(CSc1nnc(NC(=O)C(Cl)Cl)s1)Nc1ccc(Br)cn1` equals 5.19

The recorded pIC50 for entry `C=CC(=O)Nc1ccc(SCC(=O)Nc2ccccn2)cc1` equals 4.63

The recorded pIC50 for entry `O=C(CSc1ccc(NC(=O)CCCl)cc1)NCc1ccc(Cl)cc1` equals 4.50

The recorded pIC50 for entry `O=C(CCl)Nc1ccc(SCC(=O)Nc2cc(Cl)ccn2)cc1` equals 6.07

The recorded pIC50 for entry `O=C(CSc1nnc(NC(=O)c2c(Cl)cccc2Cl)s1)Nc1ccc(Br)cn1` equals 4.73

The recorded pIC50 for entry `O=C(CSc1nnc(NC(=O)CCl)s1)Nc1ccc(Cl)cn1` equals 5.07

The recorded pIC50 for entry `C=CC(=O)Nc1ccc(SCC(=O)Nc2cc(Cl)ccn2)cc1` equals 4.83
